system: NCI-H226; test: NCI tumour cell line growth inhibition, 48 h
Active and inactive are the calls of the source. Cut-off read from the data, not from the text of the source: active = GI50 up to about 1.1 µM and inactive = higher.
QUANTITY KIND: GI50

Worked cases, GI50 given:
COMPOUND	GI50
C/C(=N\C1CCCCC1)c1ccccc1O	> 100 µM (inactive)
COc1cc(OCc2nc3ccccc3n3cccc23)cc(OC)c1OC	9.73 µM (inactive)
N#C/C(=C1\OC(=N)C(c2ccc(Cl)cc2Cl)C1=O)c1ccc(Cl)cc1Cl (stereo not drawn)	> 100 µM (inactive)
C=CC(C)C1(CCCOCc2ccccc2)C(=S)N2CCC3(CC24CCCC14)OCCO3 (stereo not drawn)	36.6 µM (inactive)
C[C@@H]1CC[C@@]2(C)C(C(=O)O)=CCCC2[C@@]1(C)CC(=O)c1ccoc1 (stereo partly drawn)	> 25 µM (inactive)

### Prompt For the compound shown here, O=C(N/C(=C\c1cc(Cl)ccc1Cl)c1nc2cc(Cl)ccc2[nH]1)c1ccccc1 , give the reported GI50.
### Response 17.3 µM (inactive)

### Prompt For the compound shown here, COc1cc(/C=C2\C(=O)N(c3cccc(NC(C)=O)c3)C(c3ccccc3)S2(=O)=O)cc(OC)c1OC (stereo not drawn) , give the reported GI50.
### Response 67.6 µM (inactive)

### Prompt For the compound shown here, C=CCOc1cc(NC(=S)c2ccoc2C)ccc1OC , give the reported GI50.
### Response > 100 µM (inactive)

Just for reference, ChEMBL document CHEMBL1201862 is where these values come from.
